Quick list: Liver Microsome Stability (Multiple Species): Human - % Remaining after 30 min w/NADPH per entry.
experiment: Liver Microsome Stability Assay (human); conditions: human liver microsomes, with NADPH, 1.0 uM compound
Output spec: scalar in %, unitless text.

## Task Return Liver Microsome Stability (Multiple Species): Human - % Remaining after 30 min w/NADPH (reported value) for this molecule: NC(=O)CCn1cccc1C(=O)Nc1nc([C@H]2CCCN2c2ccccc2)cs1
## Result 29.3

## Task Return Liver Microsome Stability (Multiple Species): Human - % Remaining after 30 min w/NADPH (reported value) for this molecule: COc1ccc(O[C@H]2CCC[C@H](c3csc(NC(=O)c4cccn4Cc4ccncc4)n3)C2)nc1
## Result 0.33

## Task Return Liver Microsome Stability (Multiple Species): Human - % Remaining after 30 min w/NADPH (reported value) for this molecule: O=C(Nc1nc([C@H]2CCCN2c2ccc(C3CCCCN3)cc2)cs1)c1cccn1Cc1ccncc1 (some centres unmarked)
## Result 0.62

## Task Return Liver Microsome Stability (Multiple Species): Human - % Remaining after 30 min w/NADPH (reported value) for this molecule: CC(C)n1cnc(/C=C/c2csc(NC(=O)c3cccn3Cc3cccnc3)n2)c1
## Result 6.56

## Task Return Liver Microsome Stability (Multiple Species): Human - % Remaining after 30 min w/NADPH (reported value) for this molecule: CC(=O)Nc1ccc(N2CCC[C@@H]2c2csc(NC(=O)c3cccn3Cc3ccnc(F)c3)n2)c(F)c1
## Result 2.43

## Task Return Liver Microsome Stability (Multiple Species): Human - % Remaining after 30 min w/NADPH (reported value) for this molecule: CC(=O)N(C)CCOc1ccc(N2CCC[C@@H]2c2csc(NC(=O)c3cccn3Cc3ccnc(F)c3)n2)cc1
## Result 2.64

## Task Return Liver Microsome Stability (Multiple Species): Human - % Remaining after 30 min w/NADPH (reported value) for this molecule: N#CC[C@H](O)Cn1cccc1C(=O)Nc1nc([C@H]2CCCN2c2ccccc2)cs1
## Result 19.1

## Task Return Liver Microsome Stability (Multiple Species): Human - % Remaining after 30 min w/NADPH (reported value) for this molecule: CC(=O)Nc1ccc(N2CCC[C@@H]2c2csc(NC(=O)c3cccn3Cc3cc(F)nc(F)c3)n2)cc1
## Result 35.8

###

Quick list: EC50 per entry.
system: multiple myeloma cell line NCI-H929; assay: H929 Cell Viability Assay; type: cell-based, human; settings: Homo sapiens, NCI-H929, 48 h, NCI-H929 cells, Celltiter-Glo
Output spec: scalar in µM, unitless text.

Check out these entries, answers already filled in.
## Task Return EC50 (reported value) for this molecule: CNC(=O)Nc1ccc(N2CCC[C@@H]2c2csc(NC(=O)c3cccn3Cc3ccnc(F)c3)n2)cc1
## Result 0.133

## Task Return EC50 (reported value) for this molecule: CC(=O)N1CCC(Cc2ccc(N3CCC[C@@H]3c3csc(NC(=O)c4cccn4Cc4ccnc(F)c4)n3)cc2)CC1
## Result 2.67

## Task Return EC50 (reported value) for this molecule: CC(=O)N1CCC(Oc2ccc(N3CCC[C@@H]3c3csc(NC(=O)c4cccn4Cc4ccnc(F)c4)n3)cc2Cl)CC1
## Result 0.418

## Task Return EC50 (reported value) for this molecule: CC(=O)N1CCC(Oc2ccc(N3CCC[C@@H]3c3csc(NC(=O)c4cccn4Cc4ccnc(F)c4)n3)cc2)CC1
## Result 0.373

## Task Return EC50 (reported value) for this molecule: CC(=O)NCc1ccc(N2CCC[C@@H]2c2csc(NC(=O)c3cccn3Cc3ccncc3)n2)cc1
## Result 0.425

## Task Return EC50 (reported value) for this molecule: O=C(Nc1nc([C@H]2CCCN2c2ccc(CO)cc2)cs1)c1cccn1Cc1ccnc(F)c1
## Result 0.615

Continuing:
## Task Return EC50 (reported value) for this molecule: CC(=O)NCc1ccc(N2CCC[C@@H]2c2csc(NC(=O)c3cccn3Cc3ccnc(F)c3)n2)cc1
## Result 0.203

## Task Return EC50 (reported value) for this molecule: CNC(=O)c1ccc(N2CCC[C@@H]2c2csc(NC(=O)c3cccn3Cc3ccncc3)n2)cc1
## Result 0.161

## Task Return EC50 (reported value) for this molecule: COc1ccc(O[C@@H]2CC[C@H](c3csc(NC(=O)c4cccn4Cc4ccncc4)n3)C2)nc1
## Result 17.3

## Task Return EC50 (reported value) for this molecule: CC(=O)N1CCC(Oc2c(F)cc(N3CCC[C@@H]3c3csc(NC(=O)c4cccn4Cc4ccnc(F)c4)n3)cc2F)CC1
## Result 0.472

## Task Return EC50 (reported value) for this molecule: CCc1ccc(N2CCC[C@@H]2c2csc(NC(=O)c3cccn3Cc3ccnc(F)c3)n2)cc1
## Result 0.0601

## Task Return EC50 (reported value) for this molecule: CC(=O)Nc1ccc(N2CCC[C@@H]2c2csc(NC(=O)c3cccn3Cc3ccnc(F)c3)n2)cc1
## Result 0.0446

## Task Return EC50 (reported value) for this molecule: CC(=O)N1CCC(Oc2cc(F)c(N3CCC[C@@H]3c3csc(NC(=O)c4cccn4Cc4ccnc(F)c4)n3)c(F)c2)CC1
## Result 1.03

## Task Return EC50 (reported value) for this molecule: N#Cc1cc(Cn2cccc2C(=O)Nc2nc([C@H]3CCCN3c3ccccc3)cs2)ccn1
## Result 23.6

## Task Return EC50 (reported value) for this molecule: O=C(Nc1nc(/C=C/c2ncoc2C2CCCCC2)cs1)c1cccn1Cc1ccnc(F)c1
## Result 11.2

## Task Return EC50 (reported value) for this molecule: C[C@H](CC#N)Cn1cccc1C(=O)Nc1nc([C@H]2CCCN2c2ccccc2)cs1
## Result 21.8
